- Method description: Plasma/serum concentrations of caspofungin in a critically ill patient with morbid obesity
- Type: in vivo
- Setup conditions: male, human, plasma; three days later; 100 mg/day; one morbidly obese ICU patient; read-out: Ctrough
Measured endpoint: level at 72 h (ng/mL)
Write the value in ng/mL as a bare number.

The reported level at 72 h of the compound CC[C@H](C)C[C@H](C)CCCCCCCCC(=O)N[C@H]1C[C@@H](O)[C@@H](NCCN)NC(=O)[C@@H]2[C@@H](O)CCN2C(=O)[C@H]([C@H](O)CCN)NC(=O)[C@H]([C@H](O)[C@@H](O)c2ccc(O)cc2)NC(=O)[C@@H]2C[C@@H](O)CN2C(=O)[C@H]([C@@H](C)O)NC1=O was 1760

meta.source: paper PMC5540490
